Test system: Liver microsomes
Assay: Half life in human liver microsomes at 1 uM
Format: ADME, Microsome
This section presents compounds with their documented t1/2 values.
I only need the number, in min, no unit after it.

Task item: Please tell me: t1/2 of "CNC(=O)c1cc(N)c(Nc2ccc(C#N)cc2)cc1Oc1c(C)cc(/C=C/C#N)cc1C" , system Liver microsomes?
Reply: 44.8

Task item: Thanks! And "CNC(=O)c1cc(N)c(Nc2ccc(C#N)cc2)cc1Oc1c(C)cc(CCC#N)cc1C" ?
Reply: 55.7

Task item: Thanks! And "Cc1cc(/C=C/C#N)cc(C)c1Oc1cc(Nc2ccc(C#N)cc2)c(N)cc1[N+](=O)[O-]" ?
Reply: 47.8

Task item: Thanks! And "Cc1cc(/C=C/C#N)cc(C)c1Oc1cc(Nc2ccc(C#N)cc2)c(N)cc1C(F)(F)F" ?
Reply: 45
